ASSAY EXPLANATION: Cytotoxicity against human HeLa cells after 24 hrs by MTT assay
Type: toxicity, cell-based
PROPERTY LABEL: IC50 at 24 h

Cc1ncc([N+](=O)[O-])n1CC(O)Cn1ccnn1 (racemic)	> 5 mM
Cc1ncc([N+](=O)[O-])n1CC(O)Cn1nccn1 (racemic)	> 5 mM
CCN1CCN(CC(O)Cn2cc([N+](=O)[O-])nc2C)CC1 (racemic)	> 5 mM
Cc1nc([N+](=O)[O-])cn1CC(O)CN1CCN(c2ccccn2)CC1 (racemic)	> 5 mM

Field: next compound
Task: Endpoint output: IC50 at 24 h of COc1ccccc1N1CCN(C(=S)SCC(O)Cn2c([N+](=O)[O-])cnc2C)CC1 (racemic) . Value?
Result: > 5 mM

----------
ASSAY EXPLANATION: Selectivity index, ratio of IC50 for human HeLa cells to MIC for metronidazole sensitive Trichomonas vaginalis ATCC 33592
Assay type: toxicity, cell-based
DETAILS: read-out: Selectivity Index
PROPERTY LABEL: selectivity ratio

Cc1ncc([N+](=O)[O-])n1CC(O)CN1CCC(C)CC1 (racemic)	> 113
COc1ccccc1N1CCN(C(=S)SCC(O)Cn2c([N+](=O)[O-])cnc2C)CC1 (racemic)	> 185

Task: Endpoint output: selectivity ratio of Cc1ncc([N+](=O)[O-])n1CC(O)CN1CCCCC1C (racemic) . Value?
Result: > 90

Task: Endpoint output: selectivity ratio of Cc1ncc([N+](=O)[O-])n1CC(O)Cn1ccnn1 (racemic) . Value?
Result: > 416

Task: Endpoint output: selectivity ratio of Cc1ncc([N+](=O)[O-])n1CC(O)CN1CCN(c2ccccc2F)CC1 (racemic) . Value?
Result: > 116

Task: Endpoint output: selectivity ratio of Cc1ncc([N+](=O)[O-])n1CC(O)CN1CCOCC1 (racemic) . Value?
Result: > 108

Task: Endpoint output: selectivity ratio of Cc1ncc([N+](=O)[O-])n1CC(O)CN1CCCCCC1 (racemic) . Value?
Result: > 227

Task: Endpoint output: selectivity ratio of Cc1ncc([N+](=O)[O-])n1CC(O)CSC(=S)N(C)C (racemic) . Value?
Result: > 243

Task: Endpoint output: selectivity ratio of Cc1nc([N+](=O)[O-])cn1CC(O)CSC(=S)N1CCN(c2cccc(Cl)c2)CC1 (racemic) . Value?
Result: 31

Task: Endpoint output: selectivity ratio of Cc1ncc([N+](=O)[O-])n1CC(O)CSC(=S)N1CCCC(C)C1 (racemic) . Value?
Result: 35

Task: Endpoint output: selectivity ratio of CCCCN1CCN(C(=S)SCC(O)Cn2cc([N+](=O)[O-])nc2C)CC1 (racemic) . Value?
Result: 34

Task: Endpoint output: selectivity ratio of Cc1ncc([N+](=O)[O-])n1CC(O)CSC(=S)N1CCN(c2cccc(Cl)c2Cl)CC1 (racemic) . Value?
Result: 62

----------
ASSAY EXPLANATION: Selectivity index, ratio of IC50 for human HeLa cells to MIC for metronidazole sensitive Trichomonas vaginalis ATCC 33592
Format: toxicity, cell-based
DETAILS: read-out: Selectivity Index
PROPERTY LABEL: selectivity ratio

Example results:
CCOC(=O)N1CCN(C(=S)SCC(O)Cn2c([N+](=O)[O-])cnc2C)CC1 (racemic)	107
CCN1CCN(C(=S)SCC(O)Cn2cc([N+](=O)[O-])nc2C)CC1 (racemic)	> 37
Cc1ncc([N+](=O)[O-])n1CC(O)CSC(=S)N1CCCCC1 (racemic)	19
Cc1nc([N+](=O)[O-])cn1CC(O)CSC(=S)N1CCN(C(=O)OC(C)(C)C)CC1 (racemic)	> 178
Cc1nc([N+](=O)[O-])cn1CC(O)CN1CCN(c2ccccn2)CC1 (racemic)	> 34
Cc1ncc([N+](=O)[O-])n1CC(O)CN1CCC(Cc2ccccc2)CC1 (racemic)	40

Field: next compound
Task: Endpoint output: selectivity ratio of Cc1ncc([N+](=O)[O-])n1CC(O)CN1CCN(c2cccc(Cl)c2Cl)CC1 (racemic) . Value?
Result: > 265

----------
ASSAY EXPLANATION: Selectivity index, ratio of IC50 for human HeLa cells to MIC for metronidazole resistant Trichomonas vaginalis ATCC 50143
Type: toxicity, cell-based
DETAILS: read-out: Selectivity Index
PROPERTY LABEL: selectivity ratio

Example results:
Cc1nc([N+](=O)[O-])cn1CC(O)Cn1cncn1 (racemic)	> 5
Cc1ncc([N+](=O)[O-])n1CC(O)CSC(=S)N1CCN(c2ccccc2)CC1 (racemic)	> 135
Cc1nc([N+](=O)[O-])cn1CC(O)CSC(=S)N1CCN(C(=O)OC(C)(C)C)CC1 (racemic)	> 9
Cc1ncc([N+](=O)[O-])n1CC(O)CN1CCN(c2cccc(Cl)c2Cl)CC1 (racemic)	> 33
Cc1ncc([N+](=O)[O-])n1CC(O)CN1CCCCC1 (racemic)	> 26

Task: Endpoint output: selectivity ratio of Cc1ncc([N+](=O)[O-])n1CC(O)CN1CCN(c2ccccc2F)CC1 (racemic) . Value?
Result: > 14

Entry source: ChEMBL document CHEMBL3875170
